experiment: NCI Yeast Anticancer Drug Screen. Data for the mec2-1 strain (AID 157); conditions: S. cerevisiae mec2-1 strain, at 50.0 µM
Compounds without any hit were thinned out: in the full panel of roughly 79,000, 15% have a hit. Calls of active or inactive are those of the source. Rule as the data show it: active = growth inhibition above about 70%; inactive = the rest.
Possible outcomes: Y (active), N (inactive)

compound="Cc1occc1C(=S)Nc1ccc(Cl)c(C(=O)OC(C)C2CC2)c1 (stereo not given)" category_label=N
compound=Clc1ccc2c(NCCCCCCNc3ccnc4cc(Cl)ccc34)ccnc2c1 category_label=Y
compound=CC(=O)c1cc(-c2ccc(C)cc2)nc2c(C)cc(C)cc12 category_label=N
compound="S=C1Nc2cnc3ccccc3c2SC1c1ccccc1 (stereo not given)" category_label=Y
compound=O=C1CCCC/C1=C(\Br)I category_label=Y
compound=O=C(NNc1ccc(F)cc1)C12CC3CC(CC(C3)C1)C2 category_label=N
compound=O=C(CCN1CCCCC1)/C(=C\c1ccc(Cl)cc1)c1ccccc1 category_label=Y
compound="OC(c1cc2ccccc2o1)c1cc2ccccc2s1 (stereo not given)" category_label=Y
compound="CC(=O)N1c2ccccc2C2=NN=C(N(C)C)SC21 (stereo not given)" category_label=Y
compound=C=Cc1ccc(B2NCCO2)cc1 category_label=Y
compound=Cc1ccnc2c1ccc1c(C)ccnc12 category_label=Y
compound="C/C=C(\\C)C(=O)O[C@@H]1CC(C)(C)CC2C3=CCC4[C@]56CC[C@](O)(OC5)C(C)(C)C6CC[C@@]4(C)C3(C)CC[C@]21C(=O)O (stereo not given in full)" category_label=Y
compound=O=C1c2ccccc2C(=O)c2sccc21 category_label=Y
compound=Cc1cc(N2C(=O)CSC2=S)ccc1Cl category_label=N
compound=Cc1occc1C(=S)Nc1ccc(Cl)c(C(=O)OCC2CC2)c1 category_label=Y
compound="Cc1ccc(/C=C2\\CN(C)CC3=C2NC(=S)NC3c2ccc(C)cc2)cc1 (stereo not given)" category_label=N
compound="COC(=O)C12Oc3ccc(-c4ccc5c(c4O)C(O)=C4C(=O)CC(C)C(O)C4(C(=O)OC)O5)c(O)c3C(O)=C1C(=O)CC(C)C2O (stereo not given)" category_label=Y
compound=O=[N+]([O-])c1ccc(Oc2c(Cl)cccc2Cl)cc1 category_label=N
compound="NC(CCCNc1nc(O)cc(=O)[nH]1)C(=O)O (stereo not given)" category_label=N
compound="CCCCCCCCCN(CCCCCCCCC)CC(O)c1cc2c(c3ccccc13)CCCC2 (stereo not given)" category_label=Y
compound=O=C(O)CCSSCCCCCS(=O)O category_label=N
compound=COC(=O)c1cc(C)c2sc3ccccc3c2c1C category_label=N
compound=ClCc1nnc2n1-c1ccc(Cl)cc1SC2 category_label=N
compound=CCCCCCCCCCCCCCCCCO category_label=N
compound="O=C(c1ccccc1)C1OC1c1ccccc1Cl (stereo not given)" category_label=N
compound=O=[N+]([O-])c1ccc(Cl)cc1C=NC12CC3CC(CC(C3)C1)C2 category_label=N
compound=COc1ccccc1/C=C\C(=O)c1ccccc1 category_label=Y
compound=S=C(N/N=C(/c1ccccc1)c1ccccn1)Nc1cccc(Cl)c1 category_label=N
compound="CCCCN(CCCC)CCC(O)(c1ccc(OC)c2ccccc12)C(O)(CCN(CCCC)CCCC)c1ccc(OC)c2ccccc12 (stereo not given)" category_label=Y
compound="CCN(CC)CCN1C(=O)c2c(c3c4cccc(Cl)c4n(C4OC(CO)C(OC)C(O)C4O)c3c3[nH]c4c(Cl)cccc4c23)C1=O (stereo not given)" category_label=Y
compound=O=[N+]([O-])c1ccc(NCc2ccccc2)c([N+](=O)[O-])c1 category_label=N
compound=O=C(C=P(c1ccccc1)(c1ccccc1)c1ccccc1)CC(=S)CC(=O)C=P(c1ccccc1)(c1ccccc1)c1ccccc1 category_label=Y
compound="O=C(O)C(Br)C(Br)c1ccccc1[N+](=O)[O-] (stereo not given)" category_label=Y
compound=COC(=O)C(C#N)=C(SC)SC category_label=Y
compound=C/C(Cl)=N\OC(=O)Nc1ccc(C)cc1 category_label=Y
compound=CS/C(N)=N/NC(=O)CCC(=O)Nc1cc(Cl)c(Cl)cc1Cl category_label=N
compound=CCNC(=S)NNC(=S)NNc1ccccc1 category_label=N
compound=Cc1c(C)c2cc3c(=O)ccoc3c(C)c2oc1=O category_label=N
compound=Cc1c2ccnc(C(N)=O)c2c(C)c2c1[nH]c1ccccc12 category_label=N
compound=Cc1c(Cl)cccc1N=NC(=O)NNc1cccc(Cl)c1C category_label=Y
